The measured values listed here are drawn from paper PMC6859963.

Molecular target: WDR5 (Homo sapiens, UniProt P61964)
Construct: hexahistidine-SUMO (N, cleaved yes); made in house; host or cells: E. coli BL21-CodonPlus-RIL
Experiment: SPR binding of compounds to captured biotinylated WDR5, 1:1 steady-state affinity fit
Conditions: Table IV, derivatives of 2; SPR; mean ± SE (SE not reported where n = 1)
metric: Kd

Query: Bench note: what Kd did CNC(=O)CCc1nc(CO)c[nH]1 show?
Reply: 890 µM

Query: Fill in the blank: the reported Kd of COC(=O)N(CCCCc1nc(CO)c[nH]1)Cc1cc[nH]c(=O)c1 is ____.
Reply: 24.2 µM

Query: Recorded Kd of OCc1c[nH]c(CCCc2ccccc2)n1 , please.
Reply: 140 µM
